All values here come from patent US12319672B2.

target: human Gal-3 (hGal-3) (Homo sapiens (Human))
Sequence (P17931 whole entry): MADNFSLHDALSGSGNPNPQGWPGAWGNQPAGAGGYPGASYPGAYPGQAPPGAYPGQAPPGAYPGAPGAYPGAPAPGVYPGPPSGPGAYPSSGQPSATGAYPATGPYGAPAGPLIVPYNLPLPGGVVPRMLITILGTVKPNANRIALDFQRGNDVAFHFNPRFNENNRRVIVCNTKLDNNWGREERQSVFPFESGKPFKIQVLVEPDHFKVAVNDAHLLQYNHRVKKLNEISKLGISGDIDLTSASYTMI
pIC50: −log10 of the molar value.
observable: pIC50

> print(dat)
                                   molecule                              study.target  observable  reading
1  CC(C)(C)OC(=O)N1CCC(C2=NOC(C[C@H]3O[C@H](CO)[C@H](O)[C@H](n4cc(-c5c(F)cccc5F)nn4)[C@H]3O)C2)CC1 (stereo partly drawn)  human Gal-3 (hGal-3) (Homo sapiens (Human))       pIC50     5.60
2  CO[C@@H]1[C@@H](n2cc(-c3cc(F)c(F)c(F)c3)nn2)[C@@H](O)[C@@H](CO)O[C@@H]1Cc1cc(C(C)(C)C(F)F)no1  human Gal-3 (hGal-3) (Homo sapiens (Human))       pIC50     6.85
3  OC[C@H]1O[C@H](CC2CC(c3ccc4[nH]cnc4c3)=NO2)[C@H](O)[C@@H](n2cc(-c3cc(F)c(F)c(F)c3)nn2)[C@H]1O (stereo partly drawn)  human Gal-3 (hGal-3) (Homo sapiens (Human))       pIC50     5.94
